Reference for the values: patent US5292887A

Item-by-item account of Kb
biological target: α1-adrenoceptor (Rattus norvegicus, UniProt P43140); assay: α1-adrenoceptor antagonism, phenylephrine-induced contraction of isolated anococcygeus muscle; conditions: vs phenylephrine, read-out: α1-antagonism (pA2 vs phenylephrine) (converted)
Sequence (P43140 whole entry): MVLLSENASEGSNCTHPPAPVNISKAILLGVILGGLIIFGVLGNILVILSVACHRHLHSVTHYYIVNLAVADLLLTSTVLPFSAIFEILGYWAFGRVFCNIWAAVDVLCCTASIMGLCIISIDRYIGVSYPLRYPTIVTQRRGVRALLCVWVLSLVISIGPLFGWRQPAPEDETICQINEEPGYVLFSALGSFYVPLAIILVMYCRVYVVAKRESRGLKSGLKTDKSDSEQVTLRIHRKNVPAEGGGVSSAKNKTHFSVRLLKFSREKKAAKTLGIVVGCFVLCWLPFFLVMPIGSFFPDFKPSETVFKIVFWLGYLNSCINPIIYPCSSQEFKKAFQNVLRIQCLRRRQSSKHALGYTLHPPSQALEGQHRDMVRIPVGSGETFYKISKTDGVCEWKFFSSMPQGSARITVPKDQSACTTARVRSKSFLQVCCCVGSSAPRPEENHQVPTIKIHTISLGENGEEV

Consider the worked cases shown below.
Compound	Kb
CCCn1cnc(C2(CC)Cc3ccccc3C2)c1	6.31 µM
CCC1(c2cn(C)cn2)Cc2ccccc2C1=O (centres unmarked)	> 10 µM
CCn1cnc(C2(CC)Cc3ccccc3C2=O)c1 (centres unmarked)	> 10 µM
CCCC1(c2cn(C)cn2)Cc2ccccc2C1	> 10 µM
CCn1cnc(C2(CO)Cc3ccccc3C2)c1	> 10 µM

Kb recorded for this compound, `CCCC1(c2cn(CC)cn2)Cc2ccccc2C1` , is > 10 µM

Kb recorded for this compound, `CCn1cnc(C2(COC)Cc3ccccc3C2)c1` , is > 10 µM

Kb recorded for this compound, c1ccc2c(c1)OCC(C1=NCCN1)O2 (centres unmarked) [idazoxan, reference compound] , is 5.01 µM

Kb recorded for this compound, `CCC1(c2cn(Cc3ccccc3)cn2)Cc2ccccc2C1` , is 1 µM

Kb recorded for this compound, `OCC1(c2c[nH]cn2)Cc2ccccc2C1` , is > 10 µM

Kb recorded for this compound, `CCC1(c2cn(C)cn2)Cc2ccccc2C1` , is 7.94 µM

Kb recorded for this compound, `COCC1(c2cn(C)cn2)Cc2ccccc2C1` , is > 10 µM

Kb recorded for this compound, `CCn1cnc(C2(CC)Cc3ccccc3C2)c1` , is 6.31 µM

Kb recorded for this compound, CCC1(c2cnc[nH]2)Cc2ccccc2C1 [atipamezole, reference compound] , is > 10 µM
